These entries and their values trace back to patent US20190062453A1.

- target system: T1, Recombinant human DR4-Fc (human, UniProt O00220 109-239)
- T1 construct: bought; also called huDR4Fc; human DR4 (TNFRSF10A); Fc part of the bought chimera not given
- protocol summary: binding ELISA

binder	binding result
DR5TAA-0005 (antibody, V domains shown, rabbit IgG; also called 039; clone 039) VH: QSLEESGGRLVTPGTPLTLTCTASGFSLSSAYMSWVRQAPGKGLEWIGYIYSGSGSTWYASWVKGRFTISKTSTTVDLKITSPTTEDTATYFCARGYSTMGDLWGPGTLVTVSS VL: QVLTQTPSPVSAAVGGTVTINCQASQSVYNNRLAWYQQKPGQPPKLLIYLASTLASGVPSRFKGSGSGTQFTLTISDLQCDDAATYYCAGGYSGNINAFGGGTEVVVKG	no binding
DR5TAA-0016 (antibody, V domains shown) VH: QSLEESGGRLVKPDETLTLTCTVSGFSLNNYAMSWVRQAPGKGLEWIGMINKYGTKYYATWTKGRATISKTSTTLDLEITSPTTEDTATYFCARVRYAGDDYAEWLDVWGQGILVTVSS VL: DIVMTQTASPVSAAVGGTVTINCQASQSISSSYVSWYQQKPGQPPKLLIYKASTLASGVPSRFSGSGSGTQLSLTIRGVQCDDAATYYCLYGYSDVSSSEYVFGGGTEVVVRG	no binding
